Test system: A549
Assay: NCI tumour cell line growth inhibition, 48 h
Activity calls are given as the source filed them. No stated cut-off is given here; in the data, active = GI50 up to about 1.1 µM and inactive = higher.
Outcome codes: T (active), F (inactive)

{"Molecule": "C#CCOCn1cnc2c(N)ncnc21", "Label": "F"}
{"Molecule": "CC(=O)OCC1OC(OC2CC3C(C)(C)C(OC(C)=O)CC[C@]3(C)C3CCC45CC4(CCC5[C@@H](C)C[C@H](O)C(O)C(C)(C)O)[C@]23C)C(O)C(O)C1O (stereo not given in full)", "Label": "F"}
{"Molecule": "CC1(C)CC2(CC(C)(C)N1O)NC(=O)OC2=O", "Label": "F"}
{"Molecule": "ClC1=C(Cl)C(Cl)(Cl)SS1", "Label": "F"}
{"Molecule": "COCC(=O)[C@]1(O)Cc2c(O)c3c(c(O)c2[C@@H](OC2CC(N)C(O)C(C)O2)C1)C(=O)c1c(OC)cccc1C3=O (stereo not given in full)", "Label": "T"}
{"Molecule": "C[n+]1cccc(/C=C/c2ccc3cccc(O)c3n2)c1", "Label": "F"}
{"Molecule": "CC(=O)N(CCc1ccccc1)C(C#N)c1ccccc1 (stereo not given)", "Label": "F"}
{"Molecule": "CCCCON1C[C@H](OC(C)=O)C(OC(C)=O)[C@H](OC(C)=O)C1 (stereo not given in full)", "Label": "F"}
{"Molecule": "C[Si](C)(C)C#CCOC=C1CC1", "Label": "F"}
{"Molecule": "CC[C@@H](/C=C\\CCC1(C[C@@H](N)CCC=C(C)C)OCCO1)O[Si](C(C)C)(C(C)C)C(C)C", "Label": "F"}
{"Molecule": "NC(CC(=O)OCc1ccccc1)C(=O)OCc1ccccc1 (stereo not given)", "Label": "F"}
{"Molecule": "COc1ccc(C(=O)CCN(C)C)c2ccccc12", "Label": "F"}
{"Molecule": "CCOC(=O)C(NC(=O)Nc1ccccc1F)(OC)C(F)(F)F (stereo not given)", "Label": "F"}
{"Molecule": "CCOC(=O)CN1C(=O)c2c(NC(=O)C(=O)O)cccc2S1(=O)=O", "Label": "F"}
{"Molecule": "COCN1C(=O)[C@@H]2CCCN2C(=O)c2ccc(N)cc21", "Label": "F"}
{"Molecule": "O=S(=O)(O)c1ccc(Nc2ccnc3cc(Cl)ccc23)cc1", "Label": "F"}
{"Molecule": "CCOC(=O)C1=NN(c2ccccc2)C2=CC(C)=NN(C)C(=S)N21", "Label": "F"}
{"Molecule": "O=C(c1cc(Cl)cc(Cl)c1)N(Cc1cccnc1)C(=S)N(Cc1cccnc1)C(=O)c1cc(Cl)cc(Cl)c1", "Label": "F"}
{"Molecule": "COC(=O)[C@]12CSC[C@H]1C[C@H](c1ccccc1OC)N2", "Label": "F"}
{"Molecule": "Cc1nc2c(=O)[nH]c(=O)n(C)c2[nH]c1=O.c1ccncc1", "Label": "F"}
